experiment: self-splicing fitness, log relative to wild type (ln ratio); higher = more splicing; Tetrahymena group I intron in knt gene, E. coli kanamycin selection, DiMSum; sequences stand for … in CUCUCU…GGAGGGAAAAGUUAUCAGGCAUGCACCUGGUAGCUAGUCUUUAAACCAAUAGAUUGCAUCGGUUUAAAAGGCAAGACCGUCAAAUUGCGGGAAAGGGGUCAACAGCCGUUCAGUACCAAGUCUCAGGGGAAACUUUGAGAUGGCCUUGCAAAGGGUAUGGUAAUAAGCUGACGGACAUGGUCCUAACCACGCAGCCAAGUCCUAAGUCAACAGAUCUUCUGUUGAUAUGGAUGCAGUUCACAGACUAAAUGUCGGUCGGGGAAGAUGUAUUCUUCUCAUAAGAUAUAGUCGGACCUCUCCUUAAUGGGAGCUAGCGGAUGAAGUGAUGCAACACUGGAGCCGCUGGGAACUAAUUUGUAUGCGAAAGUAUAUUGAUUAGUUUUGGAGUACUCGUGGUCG; conditions: 30 °C;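 further: selection with 25 µg/mL kanamycin versus none on LB agar overnight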
So basically: self-splicing fitness (ln) at -2 or higher? That is true. Lower than -2? That is false.

Observe how each entry below is paired with its result.
polymer_sequence=UGAGAGCAAUAUUACGGAGU discrete_label=false
polymer_sequence=GGCUAGCAAUAUUACGUCAC discrete_label=false
polymer_sequence=CAUGAGCAAUAUUACGGUCG discrete_label=true
polymer_sequence=CAAGAGCAAUAUUACGCUCU discrete_label=false
polymer_sequence=ACGCAGCAAUAUUACGUGAU discrete_label=true
polymer_sequence=AUACAGCAAUAUUACGUUUG discrete_label=false
polymer_sequence=ACUCAGCAAUAUUACGGACA discrete_label=true
polymer_sequence=UAACAGCAAUAUUACGAAGA discrete_label=false
polymer_sequence=GGUUAGCAAUAUUACGGGCG discrete_label=true
polymer_sequence=UCAUAGCAAUAUUACGGCAU discrete_label=false

Request: Decide: is the reported value of self-splicing fitness (ln) for `AAAAAGCAAUAUUACGCUCU` equal to or greater than -2?
Response: true

Request: What about `UGUGAGCAAUAUUACGCUUC` ?
Response: false

Request: What about `CACGAGCAAUAUUACGUAUG` ?
Response: false

Request: What about `UCUAAGCAAUAUUACGAUCU` ?
Response: false

Request: What about `UAUGAGCAAUAUUACGCCUG` ?
Response: true

###

assay: self-splicing fitness, log relative to wild type (ln ratio); higher = more splicing; Tetrahymena group I intron in knt gene, E. coli kanamycin selection, DiMSum; sequences stand for … in CUCUCU…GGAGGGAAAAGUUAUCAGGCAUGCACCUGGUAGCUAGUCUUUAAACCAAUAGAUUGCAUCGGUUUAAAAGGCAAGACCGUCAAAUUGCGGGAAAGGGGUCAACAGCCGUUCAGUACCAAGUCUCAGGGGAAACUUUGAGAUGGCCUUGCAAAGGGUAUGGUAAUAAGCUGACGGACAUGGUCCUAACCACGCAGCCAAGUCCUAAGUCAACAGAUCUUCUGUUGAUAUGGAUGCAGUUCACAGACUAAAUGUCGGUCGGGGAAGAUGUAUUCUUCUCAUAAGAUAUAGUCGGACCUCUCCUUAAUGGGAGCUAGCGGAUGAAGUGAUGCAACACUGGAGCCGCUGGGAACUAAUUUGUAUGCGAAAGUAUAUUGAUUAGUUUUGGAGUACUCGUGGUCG; conditions: 37 °C
Would you kindly list self-splicing fitness (ln) for each of these sequences?
Answers are plain numbers.

polymer_sequence=UCGAAGCAAUAUUACGGUAU value=-1.73
polymer_sequence=UCUGAGCAAUAUUACGUCGG value=-0.184
polymer_sequence=CUUAAGCAAUAUUACGUUUC value=-3.23

Request: GET /values?readout=self-splicing fitness (ln)&item= `UUGGAGCAAUAUUACGCUUC`
Response: -0.757

###

assay: self-splicing fitness, log relative to wild type (ln ratio); higher = more splicing; Tetrahymena group I intron in knt gene, E. coli kanamycin selection, DiMSum; sequences stand for … in CUCUCU…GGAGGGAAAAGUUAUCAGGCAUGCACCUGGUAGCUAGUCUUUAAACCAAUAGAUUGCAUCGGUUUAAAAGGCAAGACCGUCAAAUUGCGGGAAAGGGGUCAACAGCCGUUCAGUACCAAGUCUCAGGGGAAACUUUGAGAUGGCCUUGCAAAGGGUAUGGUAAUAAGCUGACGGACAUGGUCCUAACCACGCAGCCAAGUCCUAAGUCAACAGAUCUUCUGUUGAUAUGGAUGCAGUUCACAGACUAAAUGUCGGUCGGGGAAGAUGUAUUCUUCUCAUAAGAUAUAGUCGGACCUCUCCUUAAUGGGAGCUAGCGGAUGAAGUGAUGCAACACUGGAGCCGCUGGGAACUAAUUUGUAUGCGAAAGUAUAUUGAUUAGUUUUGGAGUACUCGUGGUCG; conditions: 30 °C
Quantity kind: self-splicing fitness (ln)
One number for each entry.

polymer_sequence=CGAGAGCAAUAUUACGAAUC value=-2.29
polymer_sequence=AGAGAGCAAUAUUACGCCAG value=-3.51

# context switch: different sequence, same self-splicing fitness (ln)
Request: GET /values?readout=self-splicing fitness (ln)&item= `GAGUAGCAAUAUUACGUUUU`
Response: -2.6

###

assay: self-splicing fitness, log relative to wild type (ln ratio); higher = more splicing; Tetrahymena group I intron in knt gene, E. coli kanamycin selection, DiMSum; sequences stand for … in CUCUCU…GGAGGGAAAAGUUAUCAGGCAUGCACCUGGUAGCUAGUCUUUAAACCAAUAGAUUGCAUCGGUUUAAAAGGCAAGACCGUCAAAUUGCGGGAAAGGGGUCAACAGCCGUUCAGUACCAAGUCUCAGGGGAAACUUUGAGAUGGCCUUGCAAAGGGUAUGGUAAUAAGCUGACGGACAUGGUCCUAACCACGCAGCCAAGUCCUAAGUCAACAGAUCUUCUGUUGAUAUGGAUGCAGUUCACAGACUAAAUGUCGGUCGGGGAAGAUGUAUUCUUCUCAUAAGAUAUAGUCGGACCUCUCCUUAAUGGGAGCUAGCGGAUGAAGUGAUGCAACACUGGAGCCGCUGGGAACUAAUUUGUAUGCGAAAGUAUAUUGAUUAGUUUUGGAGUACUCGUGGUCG; conditions: 37 °C
So basically: self-splicing fitness (ln) at -2 or higher? That is y. Lower than -2? That is n.

Request: Decide: is the reported value of self-splicing fitness (ln) for `CGUAAGCAAUAUUACGGUUG` equal to or greater than -2?
Response: y

Request: What about `AGGUAGCAAUAUUACGUCAG` ?
Response: y

Request: What about `CACCAGCAAUAUUACGGGGU` ?
Response: n

Request: What about `AGGCAGCAAUAUUACGUCAG` ?
Response: y

Request: What about `ACAUAGCAAUAUUACGCUGG` ?
Response: y

Request: What about `CUGCAGCAAUAUUACGUUUU` ?
Response: n

Request: What about `AGGUAGCAAUAUUACGGUGG` ?
Response: n

Request: What about `GUGUAGCAAUAUUACGAUGG` ?
Response: y

Request: What about `CCGCAGCAAUAUUACGGUUU` ?
Response: n

Request: What about `UCGCAGCAAUAUUACGCAAU` ?
Response: n

Request: What about `GUCGAGCAAUAUUACGGUAC` ?
Response: y

Request: What about `ACUGAGCAAUAUUACGUGGG` ?
Response: n

Request: What about `CCCAAGCAAUAUUACGUGAU` ?
Response: n

Request: What about `AUGCAGCAAUAUUACGACUA` ?
Response: y

###

experiment: self-splicing fitness, log relative to wild type (ln ratio); higher = more splicing; Tetrahymena group I intron in knt gene, E. coli kanamycin selection, DiMSum; sequences stand for … in CUCUCU…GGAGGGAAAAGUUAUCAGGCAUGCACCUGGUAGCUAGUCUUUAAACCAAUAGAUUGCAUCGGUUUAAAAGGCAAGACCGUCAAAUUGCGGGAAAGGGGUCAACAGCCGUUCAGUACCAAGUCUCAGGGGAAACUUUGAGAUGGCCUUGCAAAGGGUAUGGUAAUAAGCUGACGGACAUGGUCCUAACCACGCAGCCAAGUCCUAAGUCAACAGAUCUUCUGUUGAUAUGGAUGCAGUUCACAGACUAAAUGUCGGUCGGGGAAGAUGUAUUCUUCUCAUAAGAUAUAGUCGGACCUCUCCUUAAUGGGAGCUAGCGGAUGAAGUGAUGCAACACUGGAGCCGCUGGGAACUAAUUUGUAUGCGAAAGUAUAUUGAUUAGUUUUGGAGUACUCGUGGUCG; details: 30 °C
Quantity kind: self-splicing fitness (ln)
Numbers only.

As a guide, the following entries are already answered.
polymer_sequence=GGGAAGCAAUAUUACGUCAA quantity_kind="self-splicing fitness (ln)" value=-1.34
polymer_sequence=AAAUAGCAAUAUUACGGCUA quantity_kind="self-splicing fitness (ln)" value=-0.705
polymer_sequence=CCUCAGCAAUAUUACGGUAC quantity_kind="self-splicing fitness (ln)" value=-4.96
polymer_sequence=CACGAGCAAUAUUACGCCGA quantity_kind="self-splicing fitness (ln)" value=-2.35
polymer_sequence=CUACAGCAAUAUUACGCCUC quantity_kind="self-splicing fitness (ln)" value=-3.9

For every listed record, write down its self-splicing fitness (ln).
1. GAAUAGCAAUAUUACGUCAA
2. GGCAAGCAAUAUUACGAAAA

Response:
-2.1
-0.934
